Test system: 786-0 renal
Experiment: NCI-60 one-dose screen, 48 h
Details: 10 µM unless noted
About 83,000 compounds went through this panel and 20% of them were active in at least one assay; those are over-represented in the sample as a whole. Calls of active or inactive are those of the source. The calls were made as follows: active = growth percent below 10; inactive = the rest.
Respond with a class label; see active, inactive

Below are worked cases with known answers.
INSERT INTO assay_data (molecular_string, class_name) VALUES
  ('Cc1ccccc1-n1nnc(C(=O)Nc2ccc(-c3ccccc3)cn2)c1C', 'inactive'),
  ('NC(=O)c1nc2c([nH]c1=O)CCCC2', 'inactive'),
  ('Nc1nc(N)c(C=Nc2ccc(Br)cc2)c(Nc2ccc(Br)cc2)n1', 'inactive'),
  ('COc1ccc(-c2nc3sc(C)nn3c2-c2nc3cc(C)c(C)cc3[nH]2)cc1', 'inactive'),
  ('CN1CCc2c(Sc3ccc(C(=O)NO)cc3)c3ccccc3n2C1', 'inactive');

In the following, a different compound is considered.
Q. Which result was noted for this compound in the test: COc1cc2cc(Oc3ccc(NC(=O)Nc4cccc(C(F)(F)F)c4)cc3)c(C)nc2cc1OCCN1CCCCC1
A. active

---

System: MOLT-4 leukemia
Test: NCI-60 one-dose screen, 48 h
Settings: 10 µM unless noted
Compounds without any hit were thinned out: in the full panel of roughly 83,000, 20% have a hit. Activity calls are given as the source filed them. The calls were made as follows: active = growth percent below 10; inactive = the rest.
Result category, one only: T for active, F for inactive

Answered cases to consult:
INSERT INTO assay_data (compound, target_or_system, class_name) VALUES
  ('CN([N-]C(=O)CC(=O)[N-]N(C)C(=S)c1ccccc1)C(=S)c1ccccc1.[Cu+2]', 'MOLT-4 leukemia', 'T'),
  ('C=C(C)COC(=O)c1ccccc1C(=O)OCC1(C)CO1 (stereo not given)', 'MOLT-4 leukemia', 'F'),
  ('CC1=CN2C(=NC3=C(CCCC/C3=C\c3ccccc3)C2c2ccccc2)S1 (stereo not given)', 'MOLT-4 leukemia', 'F');

Q. Outcome? CCCCCCCCCCCCCCCC[N+]1(C)CCOCC1
A. T

Q. What did the test return for COc1ccc(C2SC(C)C(=O)N2CCc2cccs2)cc1OC (stereo not given) ?
A. F

Q. Test call, this compound: Cc1cc(O)cc2c1[C@H]1CC[C@]3(C)[C@@H](O)CC[C@H]3[C@@H]1C=C2
A. F

Q. Per the assay record, what outcome was assigned to Cc1ccccc1-n1nnc(C(=O)Nc2nc(-c3ccccc3)c(-c3ccccc3)s2)c1C ?
A. F

---

System: OVCAR-8 ovarian
Test: NCI-60 one-dose screen, 48 h
Conditions: 10 µM unless noted
Experimental: Growth inhibition of the OVCAR-8 human tumor cell line is measured as a screen for anti-cancer activity. Cells are grown in 96 well plates and exposed to the test compound for 48 hours. Compounds are tested at a single concentration, which is 10^-5 M for most compounds. The reported endpoint is percent growth (GI% or GIPRCNT), where numbers from 0 - 100% represent growth inhibition, and numbers from -100% - 0 represent cell death. For example, a value of 40 represents 60% growth inhibition. […]
About 83,000 compounds went through this panel and 20% of them were active in at least one assay; those are over-represented in the sample as a whole. Active and inactive are the calls of the source. Rule for the calls: active = growth percent below 10; inactive = the rest.
Can you answer with just one of these options? label 1 = active, label 0 = inactive

INSERT INTO measurements (molecule, class_name) VALUES
  ('COc1ccccc1/C=C/C(=O)/C=C/c1ccccc1O', 'label 1');

Q. Status in this test for COc1cc(NC(=O)COc2ccccc2)c(C(N)=O)cc1OC ?
A. label 0

Q. Which outcome did this test record for the molecule COc1cc(C2=NN(c3ccc(S(N)(=O)=O)cc3)C(c3ccc(Cl)cc3)C2)cc(OC)c1OC (stereo not given) ?
A. label 0

Q. State the result this test recorded for Cc1ccc2c(N/N=C\c3ccco3)cc(C)nc2n1 .
A. label 0

Q. Which result was noted for this molecule in the test: CCCN1CCN(c2ccc3nc(-c4ccc5nc(-c6ccc(C(F)(F)F)cc6)[nH]c5c4)[nH]c3c2)CC1
A. label 1

Q. Recorded test call requested for O=C(N/N=C(\CS(=O)(=O)c1ccccc1)c1cc2ccccc2oc1=O)c1ccccc1
A. label 0

Q. What classification did Cc1c(C(=O)Nc2nc(-c3ccccc3)cs2)nnn1-c1cccc2ccccc12 end up with in this test?
A. label 0

Q. For COc1ccc2c(c1)c(=O)oc1c(C)c(OCC(C)=O)ccc12 , what call appears in the results of this test?
A. label 0

Q. In this assay, the call recorded for O=C1c2ccccc2C(=O)c2c(Nc3ccc(CCO)cc3)ccc(O)c21 was what?
A. label 0

Q. Outcome? COc1cc(/C=C/c2cc(/C=C/c3ccc(O)c(OC)c3)n(-c3ccccc3)n2)ccc1O
A. label 1

---

growth listing for selected molecules.
Test system: K-562 leukemia
Assay: NCI-60 one-dose screen, 48 h (100 = growth as untreated, 0 = no growth, -100 = all killed)
Settings: 10 µM unless noted
Compounds without any hit were thinned out: in the full panel of roughly 83,000, 20% have a hit.
Please respond with the number in % and leave the unit unwritten.

INSERT INTO results (molecule, quantity_name, experimental_result) VALUES
  ('CCCCCCCC/C=C\CCCCCCCCOc1cccc(CC(=O)NCC[N+](C)(C)C)c1', 'growth', 85.5),
  ('Clc1cccc(Cl)c1Nc1ccc2nnc(-c3ccncc3)n2n1', 'growth', 57.1),
  ('O=S(=O)(Nc1ccccc1Cl)c1ccc(-c2cnc(C3CC3)o2)cc1', 'growth', 20.1);

Q. Give the measured growth for CN1CCN(CCCn2c3c(sc4ncccc43)c(=O)n3nnc(-c4ccccc4)c23)CC1
A. 1.27

Q. Supply growth value. Item: Cc1ccc(N=c2nc3sc4c(C)ccc(C)c4n3c(N)c2C#N)cc1
A. 88.6

Q. Entry O=C1C=CC(=O)N1CCCCCCCCCCN1C(=O)C=CC1=O needs its growth filled in; supply it.
A. 5.56

---

Tested on: SF-539 CNS
Assay: NCI-60 one-dose screen, 48 h
Conditions: 10 µM unless noted
This is part of a sample that, as a whole, favours compounds with a hit. Of some 83,000 tested, about 20% had one in any assay. Calls of active or inactive are those of the source. How the source made its calls: active means growth percent below 10; inactive means the rest.
API: response.call in active, inactive

INSERT INTO assay_data (compound, class_name) VALUES
  ('Cc1ccc(S(=O)(=O)c2ccc3[nH]c(=O)[nH]c(=O)c3c2)cc1', 'inactive'),
  ('CN1CCN(c2ccc3nc(-c4ccc5nc(-c6ccc(C(F)(F)F)cc6)[nH]c5c4)[nH]c3c2)CC1', 'inactive'),
  ('COc1ccc(C2=NOC(CC(=O)N(CCO)CCO)C2)cc1OC1CCCC1 (configuration not stated)', 'inactive'),
  ('Cc1ccc(C(=O)Nc2ccccc2N)cc1', 'inactive'),
  ('O=C(c1cnn2c1NC(c1ccc(F)cc1)C2)N1CCCCC1 (configuration not stated)', 'inactive'),
  ('COc1cc(-c2nc3ccccc3o2)cc(CN2CCN(c3ccccc3)CC2)c1O', 'inactive'),
  ('Nc1nc(-c2ccnc(Cl)c2)nn1-c1nc2ccccc2s1', 'inactive'),
  ('Cc1ccccc1-n1nnc(C(=O)Nc2ccc(-c3ccccc3)cn2)c1C', 'inactive'),
  ('COc1nc2c(cc1S(=O)(=O)c1ccccc1)CCc1c-2cnn1-c1ccccc1Cl', 'inactive'),
  ('O=C1C(Br)=C(c2ccccc2)C(=O)C(Br)=C1c1ccccc1', 'inactive');

Q. Hi team, can someone confirm the assay call for COC(=O)CCC(=O)c1ccccc1 ?
A. inactive

Q. Hi, sorry to bother you, what did the test record for O=C1c2ccccc2-c2cn(Cc3ccccc3)c3cccc(c23)C1c1cccnc1 (configuration not stated) ?
A. inactive

Q. # lookup: test call for COc1ccc2c(c1)c(=O)oc1c(C)c(OCC(C)=O)ccc12
A. inactive

Q. Assay result, entry O=c1ccc2ccccc2o1 — outcome?
A. inactive

Q. Dear all, I need the recorded test outcome for Cc1ccc(S(=O)(=O)N2C/C(=C\c3cc(F)cc(F)c3)C(=O)/C(=C/c3cc(F)cc(F)c3)C2)cc1 , thank you.
A. active

Q. Could you please tell me the result logged for O=c1c2c(=NCCN3CCCC3)cc3c(=O)n(CCCN4CCOCC4)c(=O)c4c(-c5ccc(CN6CCCC6)cc5)cc(c(O)n1CCCN1CCOCC1)c2c4-3 in this assay?
A. active

Q. Hello, I am checking results. What call was entered for C=CC(=O)N1CC2(CCC(n3nc(-c4ccc(Oc5ccccc5)cc4)c4c(N)ncnc43)CC2)C1 ?
A. active

---

Tested on: RXF 393 renal
Experiment: NCI-60 one-dose screen, 48 h (100 = growth as untreated, 0 = no growth, -100 = all killed)
Conditions: 10 µM unless noted
This is part of a sample that, as a whole, favours compounds with a hit. Of some 83,000 tested, about 20% had one in any assay.
QUANTITY_NAME: growth (%)
A number alone suffices; assume %.

# example entries with known answers
INSERT INTO assay_data (molecule, quantity_name, units_label, experimental_result) VALUES
  ('O=c1onc(-c2ccccc2)c2ccccc12', 'growth', '%', 90.5),
  ('NC(=O)c1cc(I)ccc1NC(=O)COc1ccc(Cl)cc1Cl', 'growth', '%', 99.3),
  ('COc1ccc(/C=C(\C#N)c2ccc(OC)cc2)cc1', 'growth', '%', 65.3),
  ('C=C(C)CCCC(C)CC#N (stereo unspecified)', 'growth', '%', 105),
  ('Cc1ccc2c(c1)c(Sc1ccc(C(=O)NO)cc1)c1n2CN(C)CC1', 'growth', '%', 33);

# next molecule below
Q. Return growth for the following molecule: CC(C)(C)[Si](C)(C)OC1[C@@H](COC(N)=O)O[C@@H](n2cnc3c(N)ncnc32)[C@H]1O[Si](C)(C)C(C)(C)C (stereo partly specified)
A. 106
